Let's look at some compounds and their measured TGI.
Test system: SK-MEL-5 melanoma
MEASUREMENT DESCRIPTION: NCI tumour cell line growth inhibition, 48 h
Response body: numeric value in µM, unit text excluded.

- COMPOUND: "COc1ccc(N=C2CSc3nnc(-c4cc(F)c(Cl)cc4Cl)n3N2)cc1"
  TGI / µM: 11.1
- COMPOUND: "CCOC(C[Se]CC(OCC)OCC)OCC"
  TGI / µM: 29.6
- COMPOUND: "COc1ccc2[nH]c(C(=O)N3CC(CCl)c4ccc(N)cc43)cc2c1 (stereo not given)"
  TGI / µM: 0.195

# get_value(readout='TGI', item= "Cc1cc(-c2ncc(CC(=O)Nc3ccc(-c4cnccn4)cn3)cc2C)ccn1" )
29.6

Taken from PubChem BioAssay (NCI).
